Test system: C33A
Experiment: Primary qHTS to identify gynecologic anti-cancer compounds using libraries of approved drugs and bioactive compounds (AID 1345084); further: on the % scale 0 is the no-effect control and ±100 the full control effect; nearly all actives have a fitted effect of over 55% in size
Conditions: Gynecologic cancer cell panel viability, ATPlite luminescence, 48 h; series mostly up to 57.5 µM
Source text: National Center for Advancing Translational Sciences [NCATS] Assay Overview: Chemotherapeutic drug responses vary from cancer to cancer and from patient to patient. […] ATPlite is a luminescence based assay reliant on the conversion of a luciferase substrate to light in the presence of ATP. As a cytotoxic compound will suppress growth and decrease the number of cells, the concentration of ATP will decrease, and less light signal will be detected in the well. […]
Results filed as inconclusive are left out. Active and inactive are the calls of the source. The call rests on the fitted dose curve; in most records, active means well fitted cell-killing curve with a large enough effect; inconclusive means small, poorly fitted or top-dose-only effect, or effect the other way; inactive means flat fitted curve, though single readings scatter.
measurement_name: activity change, negative = cytotoxicity

Look over these answered cases.
**Query** Any idea what its activity change, negative = cytotoxicity is? The molecule is CC1=CCC(C(C)(C)O[C@@H]2O[C@H](CO[C@@H]3O[C@@H](C)[C@H](O)[C@@H](O)[C@H]3O)[C@@H](O)[C@H](O)[C@H]2O)CC1 (stereo not given in full)
**Result** inactive

**Query** Same lookup for C/C=C1\[C@H](OC2OC(COC3OC(CO)C(O)C(O)C3O)C(O)C(O)C2O)OC=C(C(=O)OC)[C@H]1CC(=O)OCCc1ccc(O)cc1 (stereo not given in full) , please.
**Result** inactive

**Query** Could you do the same for C[C@@H]1CC[C@]2(C(=O)O[C@@H]3O[C@H](CO)[C@@H](O)[C@H](O)[C@H]3O)CC[C@]3(C)C(=CCC4[C@@]5(C)C[C@@H](O)[C@H](O)[C@@](C)(C(=O)O[C@H]6[C@H](O)C[C@@]7(C)C(CC[C@]8(C)C7CC=C7[C@H]9[C@](C(=O)O[C@@H]%10O[C@H](CO)[C@@H](O)[C@H](O)[C@H]%10O)(CC[C@@H](C)[C@@]9(C)O)CC[C@]78C)[C@@]6(CO)C(=O)O)C5CC[C@]43C)[C@@H]2[C@]1(C)O (stereo not given in full) , please?
**Result** 2.44% [at 6.55 µM] (inactive)

**Query** Let us now turn to COC(=O)C[C@H]1[C@]2(C)C3=C(C)[C@H](c4ccoc4)C[C@H]3O[C@@H]2[C@H](OC(C)=O)C2[C@](C)(C(=O)OC)C=CC(=O)[C@@]21C (stereo not given in full)
**Result** inactive

Next:
**Query** So what's the measured activity change, negative = cytotoxicity for this one? Cn1c(=O)cc(N2CCCC(N)C2)n(Cc2cc(F)ccc2C#N)c1=O (stereo not given)
**Result** inactive

###

Test system: HeLa
Assay: Primary qHTS to identify gynecologic anti-cancer compounds using libraries of approved drugs and bioactive compounds (AID 1345084); further: on the % scale 0 is the no-effect control and ±100 the full control effect; nearly all actives have a fitted effect of over 55% in size
Settings: Gynecologic cancer cell panel viability, ATPlite luminescence, 48 h; series mostly up to 57.5 µM
Records with an inconclusive call do not appear. Calls of active or inactive are those of the source. Calls come from the whole dose curve; as a rule, active = well fitted cell-killing curve with a large enough effect; inconclusive = small, poorly fitted or top-dose-only effect, or effect the other way; inactive = flat fitted curve, though single readings scatter.
measurement_name: outcome

**Query** Using the record for "Cc1c(F)cc(C(=O)NC2CC2)cc1-c1c(F)cn2c(C(C)(C)C)nnc2c1F" , report its outcome.
**Result** inactive

**Query** Now consider O=C(NOCC(O)CO)c1ccc(F)c(F)c1Nc1ccc(I)cc1F (centres undefined) .
**Result** inactive

**Query** Quick one: "CCCCOC(=O)NC(=O)C1c2ccccc2Oc2ccccc21"
**Result** inactive

**Query** Similarly, C=CC1C(OC2OC(CO)C(O)C(O)C2O)OC=C2C(=O)N3C(C(=O)O)Cc4c([nH]c5ccccc45)C3CC21 (centres undefined) ?
**Result** inactive

**Query** Let us now turn to CC(C)=CCC(O)/C(C)=C/CO[C@@H]1O[C@H](CO)[C@@H](O)[C@H](O)[C@H]1O (some centres undefined)
**Result** inactive

**Query** Field entry: "COc1cccc(C(=O)N2CCN(C(=O)COc3cccc(C)c3)CC2)c1OC"
**Result** inactive

**Query** Item: "CCc1cc(CN2CC(C(=O)O)C2)sc1-c1noc(-c2ccc(Oc3ccccc3)cc2)n1"
**Result** inactive

**Query** Request: Cc1nc(C)c(-c2ccc(C3CCC(CC(=O)O)CC3)cc2)nc1C(N)=O (centres undefined)
**Result** inactive

Next:
**Query** Requested read-out: outcome. Entry: C[C@H](NC(c1cccc2[nH]c(=O)c(=O)[nH]c12)P(=O)(O)O)c1ccc(Br)cc1 (some centres undefined)
**Result** inactive

# credit: PubChem BioAssay (NCATS)
